- assayOverview: in vivo
- Format: in vivo, rabbits
- particulars: male, NZ, rabbit, in vivo, 20 mg/kg; as stated in the summary text; read-out: tmax
Provide the reported Tmax of each item.
I only need the number, in h, no unit after it.

### Prompt Quick check: Tmax of Cc1ccc(CN2C(=O)CC[C@H]2C(=O)N2CCC[C@H](CNC(=O)OC(C)(C)C)C2)cc1 ?
### Response 8.67

### Prompt Fill in the blank: the reported Tmax of Cc1ccc(CN2C(=O)CC[C@H]2C(=O)N2CCC[C@@H](CNC(=O)OC(C)(C)C)C2)cc1 is ____.
### Response 0.75

====

- Test system: hyperlipidemic hamsters
- assayOverview: FeCl3 induced thrombosis in hyperlipidemic hamsters
- Type: in vivo
- particulars: HCHF fed hamsters
observedProperty: time to occlusion (TTO)

Cc1ccc(CN2C(=O)CC[C@H]2C(=O)N2CCCC(CNC(=O)OC(C)(C)C)C2)cc1 (some centres unmarked) ... remained ineffective
Cc1ccc(CN2C(=O)CC[C@H]2C(=O)N2CCC[C@H](CNC(=O)OC(C)(C)C)C2)cc1 ... remained ineffective
CC(=O)Oc1ccccc1C(=O)O [aspirin, reference compound] ... significantly prolonged
COC(=O)[C@H](c1ccccc1Cl)N1CCc2sccc2C1 [clopidogrel, reference compound] ... significantly prolonged

====

- Tested on: human platelet rich plasma (TRAP induced aggregation)
- assayOverview: TRAP (SFLLRN) induced platelet aggregation, human platelet rich plasma (in vitro)
- Format: cell-based
- particulars: Platelet; human PRP, 25 μM TRAP; read-out: TRAP induced platelet aggregation studies (Human) IC50
Record form. Attribute: IC50. Fill in for each entry.

### Prompt Entry Cc1ccc(CN2C(=O)CC[C@H]2C(=O)N2CCC[C@H](CNC(=O)OC(C)(C)C)C2)cc1 [Compound 7] : reported IC50 = ?
### Response > 500 µM

### Prompt Please report the recorded IC50 for Cc1ccc(CN2C(=O)CC[C@H]2C(=O)N2CCC[C@@H](CNC(=O)OC(C)(C)C)C2)cc1 [Compound 6] .
### Response > 500 µM
